Hello, the source for this data is the RNAGym collection of RNA variant scans (doi:10.1038/s41586-018-0170-7), in case you need it.

B1: tRNA (parent)
chain: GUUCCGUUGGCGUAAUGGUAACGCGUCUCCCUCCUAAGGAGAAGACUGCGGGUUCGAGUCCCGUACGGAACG

- Variants of: B1
- Assay remarks: yeast fitness, log relative to wild type (ln ratio); higher = fitter; tRNA-Arg(CCU), competitive growth, 37 C, 1 M NaCl

Variant identifier | yeast fitness (ln)
U2G C27U A43C C46U A70G C71U | -0.115
G1A U2G G6U C27U A43C C46U C71U | -0.277
U2G G6U C27U C46U A69G A70G | -0.191
U2C C46U C66A A70G C71U | -0.168
G1A U2G G6U A69G A70G C71U | -0.427
U2G C46U | -0.0208
A43C C66U A70G C71U | -0.156
G1A U2G C27U A70G C71U | -0.371
G6U A43C C46U C66U A69G A70G C71U | -0.325
G6A C71U | -0.23
U2G G6A C27U | -0.0425
